# SYSTEM_NAME: Ecm22 (UniProt Q05958)
# Sequence: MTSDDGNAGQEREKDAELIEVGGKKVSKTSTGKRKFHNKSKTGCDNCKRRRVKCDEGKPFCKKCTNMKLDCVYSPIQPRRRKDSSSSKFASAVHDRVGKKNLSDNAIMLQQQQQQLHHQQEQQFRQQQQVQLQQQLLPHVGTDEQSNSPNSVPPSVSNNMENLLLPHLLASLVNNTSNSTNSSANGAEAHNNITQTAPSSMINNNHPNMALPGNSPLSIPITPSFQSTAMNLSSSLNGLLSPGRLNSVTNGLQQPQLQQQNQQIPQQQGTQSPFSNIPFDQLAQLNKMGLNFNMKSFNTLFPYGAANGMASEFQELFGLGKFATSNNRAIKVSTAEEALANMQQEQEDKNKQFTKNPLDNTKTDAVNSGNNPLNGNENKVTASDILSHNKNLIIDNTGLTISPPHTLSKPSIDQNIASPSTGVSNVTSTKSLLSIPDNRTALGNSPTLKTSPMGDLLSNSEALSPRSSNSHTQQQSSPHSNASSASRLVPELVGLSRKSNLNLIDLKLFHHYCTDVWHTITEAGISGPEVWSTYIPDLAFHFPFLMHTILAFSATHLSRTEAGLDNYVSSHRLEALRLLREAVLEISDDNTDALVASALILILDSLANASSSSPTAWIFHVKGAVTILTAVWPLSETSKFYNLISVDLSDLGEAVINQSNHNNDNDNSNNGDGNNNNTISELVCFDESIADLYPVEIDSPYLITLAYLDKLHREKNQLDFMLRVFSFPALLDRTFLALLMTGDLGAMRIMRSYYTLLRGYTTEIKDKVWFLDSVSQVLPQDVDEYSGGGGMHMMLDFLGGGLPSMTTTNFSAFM
# ASSAY_EXPLANATION: PBM E-score (8-mer binding enrichment) (E-score (-0.5 to 0.5)); higher = stronger / more preferred TF binding
# PARTICULARS: protein concentration: 200 nM; construct: GST-full length
Over roughly 33,000 sequences, “E-score (-0.5 to 0.5)” has its median near -0.041; the highest 2% begin near 0.37. The list comes from a sample in which the highest values are over-represented; it also holds close analogues and randomly drawn sequences.
RESULT_TYPE: PBM E-score

{"columns": ["QUERY_SEQUENCE", "ASSAY_RESULT"],
 "data": [
  ["GTCATAGA", -0.115]
]}

Lab book: PBM E-score of AGGGGAAA noted as -0.223

Lab book: PBM E-score of GACTCGAA noted as -0.121

Lab book: PBM E-score of AACGAGCC noted as 0.442

Lab book: PBM E-score of CTACCAAG noted as -0.23

Lab book: PBM E-score of AACTCGTC noted as 0.102

Lab book: PBM E-score of AACTCGTA noted as 0.47

Lab book: PBM E-score of CACTCGTA noted as 0.458

Lab book: PBM E-score of CCAAGGCA noted as -0.0888

Lab book: PBM E-score of AAGCGGTA noted as 0.145

Lab book: PBM E-score of GCGGGGAC noted as -0.152

---

# SYSTEM_NAME: Ecm22 (UniProt Q05958)
# Sequence: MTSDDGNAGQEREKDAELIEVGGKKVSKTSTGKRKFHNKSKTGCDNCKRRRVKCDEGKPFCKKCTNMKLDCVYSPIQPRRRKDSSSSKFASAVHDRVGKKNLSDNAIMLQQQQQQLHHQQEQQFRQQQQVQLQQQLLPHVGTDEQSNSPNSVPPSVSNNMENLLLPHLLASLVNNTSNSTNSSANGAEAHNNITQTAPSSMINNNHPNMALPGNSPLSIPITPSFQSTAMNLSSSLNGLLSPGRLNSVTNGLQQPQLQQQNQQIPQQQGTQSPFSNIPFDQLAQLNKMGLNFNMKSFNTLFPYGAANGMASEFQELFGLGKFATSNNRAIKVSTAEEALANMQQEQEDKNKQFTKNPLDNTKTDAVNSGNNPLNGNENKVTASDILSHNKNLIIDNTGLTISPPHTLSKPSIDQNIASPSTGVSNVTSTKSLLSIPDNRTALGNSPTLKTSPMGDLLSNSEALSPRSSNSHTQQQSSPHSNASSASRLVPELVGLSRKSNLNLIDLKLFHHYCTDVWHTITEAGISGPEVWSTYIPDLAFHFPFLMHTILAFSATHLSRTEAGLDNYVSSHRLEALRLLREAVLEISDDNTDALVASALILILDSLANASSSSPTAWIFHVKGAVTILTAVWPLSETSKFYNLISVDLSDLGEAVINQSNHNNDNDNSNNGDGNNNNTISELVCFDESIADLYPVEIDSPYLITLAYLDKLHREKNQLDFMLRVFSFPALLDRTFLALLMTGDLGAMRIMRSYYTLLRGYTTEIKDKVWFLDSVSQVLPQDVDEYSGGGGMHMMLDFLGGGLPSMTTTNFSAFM
# ASSAY_EXPLANATION: PBM E-score (8-mer binding enrichment) (E-score (-0.5 to 0.5)); higher = stronger / more preferred TF binding
# PARTICULARS: protein concentration: 200 nM; construct: GST-full length
Over roughly 33,000 sequences, “E-score (-0.5 to 0.5)” has its median near -0.041; the highest 2% begin near 0.37. The sample as a whole holds a higher share of the highest values than the screen did.
Record Met whenever PBM E-score is at 0.2 or higher; record Not met when lower.

{"columns": ["QUERY_SEQUENCE", "GROUP_LABEL"],
 "data": [
  ["CGCGATAG", "Not met"],
  ["TACCACGA", "Not met"]
]}

q: In plain terms: is recorded PBM E-score at least 0.2 for ACGAGCTG ?
a: Met

q: In plain terms: is recorded PBM E-score at least 0.2 for TACGATCA ?
a: Met

q: In plain terms: is recorded PBM E-score at least 0.2 for AGGAGCTG ?
a: Not met

q: In plain terms: is recorded PBM E-score at least 0.2 for AGTATACC ?
a: Not met

q: In plain terms: is recorded PBM E-score at least 0.2 for ATGCACCG ?
a: Not met

q: In plain terms: is recorded PBM E-score at least 0.2 for CGGGACGC ?
a: Not met

q: In plain terms: is recorded PBM E-score at least 0.2 for AAGTAGCA ?
a: Not met

q: In plain terms: is recorded PBM E-score at least 0.2 for ATAGGAGC ?
a: Not met

q: In plain terms: is recorded PBM E-score at least 0.2 for CCCGGGAA ?
a: Not met

q: In plain terms: is recorded PBM E-score at least 0.2 for AGGGAACA ?
a: Not met

---

# SYSTEM_NAME: Ecm22 (UniProt Q05958)
# Sequence: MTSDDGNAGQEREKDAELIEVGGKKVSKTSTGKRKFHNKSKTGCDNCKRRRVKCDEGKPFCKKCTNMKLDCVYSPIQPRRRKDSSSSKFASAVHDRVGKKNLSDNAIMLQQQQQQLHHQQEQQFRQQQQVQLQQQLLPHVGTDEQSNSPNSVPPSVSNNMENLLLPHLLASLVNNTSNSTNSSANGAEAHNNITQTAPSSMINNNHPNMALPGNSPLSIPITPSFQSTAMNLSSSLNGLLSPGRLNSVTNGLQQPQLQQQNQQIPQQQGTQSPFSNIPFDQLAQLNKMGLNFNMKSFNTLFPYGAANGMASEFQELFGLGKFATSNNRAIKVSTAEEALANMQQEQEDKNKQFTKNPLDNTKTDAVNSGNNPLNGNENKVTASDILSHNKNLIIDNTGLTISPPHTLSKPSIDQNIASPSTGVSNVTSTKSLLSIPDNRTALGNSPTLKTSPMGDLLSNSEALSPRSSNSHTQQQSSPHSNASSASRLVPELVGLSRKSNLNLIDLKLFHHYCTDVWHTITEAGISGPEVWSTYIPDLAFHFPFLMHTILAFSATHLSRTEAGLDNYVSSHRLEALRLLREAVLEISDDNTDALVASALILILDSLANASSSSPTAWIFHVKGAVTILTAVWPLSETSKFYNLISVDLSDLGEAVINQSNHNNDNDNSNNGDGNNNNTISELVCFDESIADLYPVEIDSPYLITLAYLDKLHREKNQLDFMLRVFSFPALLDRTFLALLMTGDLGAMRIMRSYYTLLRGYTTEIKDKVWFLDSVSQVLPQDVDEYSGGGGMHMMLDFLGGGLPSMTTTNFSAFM
# ASSAY_EXPLANATION: PBM E-score (8-mer binding enrichment) (E-score (-0.5 to 0.5)); higher = stronger / more preferred TF binding
# PARTICULARS: protein concentration: 200 nM; construct: GST-full length
The full ranking holds about 33,000 sequences; the median of “E-score (-0.5 to 0.5)” is about -0.041, and the highest 2% start at about 0.37. The sample holds the highest values, similar sequences and a random draw of the others, so the mix is not that of the screen.
RESULT_TYPE: PBM E-score
Returns: the value as a bare number; no unit string appended.

The cases that follow already have their PBM E-score on record.
{"columns": ["QUERY_SEQUENCE", "ASSAY_RESULT"],
 "data": [
  ["CCCGTATA", 0.471],
  ["ACGAGGTC", 0.389],
  ["AAAGGTCG", 0.00556],
  ["CGTACGTA", 0.367],
  ["GGTACGAA", 0.486],
  ["GCCGTATA", 0.463]
]}

Lab book: PBM E-score of AGCGTCCC noted as -0.145

Lab book: PBM E-score of ATGAGGTG noted as -0.127

Lab book: PBM E-score of AGTACGTA noted as 0.283

Lab book: PBM E-score of CCGAGGTC noted as 0.11

Lab book: PBM E-score of GGCTCCTA noted as -0.159

Lab book: PBM E-score of GGTACGCA noted as 0.263

Lab book: PBM E-score of ACTACGAT noted as 0.182

Lab book: PBM E-score of GGTACGTA noted as 0.319

Lab book: PBM E-score of AGTACGAT noted as 0.407

Lab book: PBM E-score of GTCTACCA noted as -0.215

Lab book: PBM E-score of AGGAGGTG noted as -0.298

Lab book: PBM E-score of ATAAACTA noted as 0.0319

Lab book: PBM E-score of AGTACGCA noted as -0.0459

Lab book: PBM E-score of CCCGTATC noted as 0.327

Lab book: PBM E-score of GCGAGGTA noted as 0.285

Lab book: PBM E-score of ACGAGGTG noted as 0.397
